Kindly state inhibition at 3 µM for each of the entries shown.
# Test system: TNF-α secretion
# Assay details: TNF-α secretion assay (PMA-differentiated THP-1 cells, LPS-triggered, MSD readout)
# Type: cell-based
# Stated conditions: Homo sapiens, compound at 3 μM, LPS 24 h
Structures can show the parent of a compound that is named as a salt.
Numbers only, in %.

Give inhibition at 3 µM for each listed item.
1. CC(C)CN1CCC[C@@H](NC(=O)Cn2nc(C(C)C)n3c(cc4ccsc43)c2=O)C1 [Example 14]
2. CC(C)c1nn(CC(=O)N[C@@H]2CCCN(C3CCC3)C2)c(=O)c2cc3ccsc3n12.O=CO [Example 11, formate]
3. CC(C)c1nn(CC(=O)N[C@@H]2CCCN(CC3CCCC3)C2)c(=O)c2cc3ccsc3n12 [Example 17]
4. C=O.CC(C)c1nn(CC(=O)N[C@@H]2CCCN(CCO)C2)c(=O)c2cc3ccsc3n12 [Example 19]
5. O=C(Cn1nc(C2CC2)n2c(cc3ccsc32)c1=O)N[C@@H]1CCCN(C2CCC2)C1 [Example 20]
6. CC(C)c1nn(CC(=O)NC2CN(C)CC(F)(F)C2)c(=O)c2cc3ccsc3n12 (stereo not shown) [Example 35]
7. CC(C)c1nn(CC(=O)N[C@@H]2CCCN(C3CC3)C2)c(=O)c2cc3ccsc3n12 [Example 4]
8. CC(C)c1nn(CC(=O)N[C@@H]2CCCN(C[C@H](C)O)C2)c(=O)c2cc3ccsc3n12 [Example 3]

1: -0.5; 2: 20.1; 3: 11.2; 4: 27.7; 5: -6.1; 6: 23; 7: 21.5; 8: 3.1

Would you be so kind as to report inhibition at 3 µM for each listed record?
1. CC(C)c1nn(CC(=O)N[C@@H]2CCCN(CC3CC3)C2)c(=O)c2cc3ccsc3n12 [Example 28, formate]
2. C[C@H](O)CN1CCC[C@@H](NC(=O)Cn2nc(C3CC3)n3c(cc4ccsc43)c2=O)C1 [Example 22]
3. C=O.CC(C)c1nn(CC(=O)N[C@@H]2CCCN(CC3CC3(F)F)C2)c(=O)c2cc3ccsc3n12 (stereo partly shown) [Example 18]
4. CC(C)c1nn(CC(=O)N[C@@H]2CCCN(C)C2)c(=O)c2cc3cc(Br)sc3n12 [Example 8]
5. CC(C)c1nn(CC(=O)N[C@@H]2CCCN(CC(C)(C)O)C2)c(=O)c2cc3ccsc3n12 [Example 23, formate]

1. 34.4
2. -2.9
3. 9.6
4. -10
5. 1.8
